Source of measurements: ChEMBL document CHEMBL1944507

experiment: Half life in Beagle dog at 2 mg/kg, iv; assay type: ADME, organism-based, Canis lupus familiaris; set-up: dose 2 mg/kg, route intravenous; settings: in vivo

| Substance Smiles | Unit Info | half-life |
| --- | --- | --- |
| O=C(O[C@@H]1COc2nc([N+](=O)[O-])cn2C1)N1CCN(c2ccc(OC(F)(F)F)cc2)CC1 | h | 28 |

---

assay: Tmax in Beagle dog at 20 mg/kg, po; type: ADME, organism-based, Canis lupus familiaris; design: dose 20 mg/kg, route oral; details: in vivo

| Substance Smiles | Unit Info | Tmax |
| --- | --- | --- |
| O=C(O[C@@H]1COc2nc([N+](=O)[O-])cn2C1)N1CCN(c2ccc(OC(F)(F)F)cc2)CC1 | h | 8 |

---

system: Mycobacterium tuberculosis; experiment: Antimicrobial activity against Mycobacterium tuberculosis infected in BALB/c mouse assessed as fold reduction in lung CFU at 100 mg/kg, po administered 11 days after post infection qd for 5 days per week for 3 weeks relative to PA-824; format: functional
Reported fold change (FC) values for the following compounds.
Quantity Kind: fold change (FC)

| Substance Smiles | Quantity Kind | Result Value |
| --- | --- | --- |
| O=C(CO[C@@H]1COc2nc([N+](=O)[O-])cn2C1)Nc1ccc(OC(F)(F)F)cc1 | fold change (FC) | 0.33 |
| O=C(Nc1ccc(OC(F)(F)F)cc1)O[C@@H]1COc2nc([N+](=O)[O-])cn2C1 | fold change (FC) | 0.39 |
| O=C(O[C@@H]1COc2nc([N+](=O)[O-])cn2C1)N1CCN(c2ccc(OC(F)(F)F)cc2)CC1 | fold change (FC) | 5.2 |
| O=C(Nc1cccc(-c2ccc(OC(F)(F)F)cc2)c1)N[C@@H]1COc2nc([N+](=O)[O-])cn2C1 | fold change (FC) | <0.01 |
| O=C(Nc1ccc(-c2ccc(OC(F)(F)F)cc2)cc1)N[C@@H]1COc2nc([N+](=O)[O-])cn2C1 | fold change (FC) | 1 |
| CN(C(=O)O[C@@H]1COc2nc([N+](=O)[O-])cn2C1)c1ccc(OC(F)(F)F)cc1 | fold change (FC) | 5.3 |
| O=C(Nc1cccc(-c2ccc(C(F)(F)F)nc2)c1)O[C@@H]1COc2nc([N+](=O)[O-])cn2C1 | fold change (FC) | 0.02 |
| O=C(Nc1cccc(-c2ccc(OC(F)(F)F)cc2)c1)O[C@@H]1COc2nc([N+](=O)[O-])cn2C1 | fold change (FC) | 3.4 |
| O=C(Nc1ccc(-c2ccc(OC(F)(F)F)cc2)cc1)O[C@@H]1COc2nc([N+](=O)[O-])cn2C1 | fold change (FC) | 5 |

---

assay: Kinetic solubility of the compound in water at pH 7 by HPLC analysis; assay type: physicochemical; details: read-out: Kinetic_solubility
Reported log10 solubility kinetic values for the following compounds.
Quantity Kind: log10 solubility kinetic (log10 of the value in µg/mL)

| Substance Smiles | Result Value |
| --- | --- |
| CN(Cc1ccc(OC(F)(F)F)cc1)C1CCN(C(=O)O[C@@H]2COc3nc([N+](=O)[O-])cn3C2)CC1 | 1.04 |
| O=[N+]([O-])c1cn2c(n1)OC[C@@H](NC(=S)Nc1ccc(OC(F)(F)F)cc1)C2 | 1.08 |
| CN([C@@H]1COc2nc([N+](=O)[O-])cn2C1)S(=O)(=O)c1ccc(OC(F)(F)F)cc1 | 1.18 |
| O=C(N[C@@H]1COc2nc([N+](=O)[O-])cn2C1)OCc1ccc(-c2ccc(OC(F)(F)F)cc2)cc1 | -0.17 |
| O=C(Nc1cccc(-c2ccc(OC(F)(F)F)cc2)c1)N[C@@H]1COc2nc([N+](=O)[O-])cn2C1 | 0.48 |
| O=C(Cc1ccc(-c2ccc(OC(F)(F)F)cc2)cc1)N[C@@H]1COc2nc([N+](=O)[O-])cn2C1 | 0.26 |
| O=C(NCc1ccc(-c2ccc(OC(F)(F)F)cc2)cc1)O[C@@H]1COc2nc([N+](=O)[O-])cn2C1 | -0.47 |
| O=C(Nc1ccc(-c2ccc(OC(F)(F)F)cc2)cc1)N[C@@H]1COc2nc([N+](=O)[O-])cn2C1 | -0.77 |
